Tested on: L1210 leukemia ip in BDF1 mice, survival T/C
Assay: NCI In Vivo Anticancer Drug Screen. Data for tumor model L1210 Leukemia (intraperitoneal) in B6D2F1 (BDF1) mice
Conditions: endpoint: mean survival time; dose: 100.0 mg/kg/injection; schedule: Q01DX001 (ip); vehicle: saline
Protocol: The antitumor activity of compounds was measured in mice bearing transplantable tumors. Survival or tumor size were measured and the results are expressed as the measurement made in the treated group (T) divided by the measurement made in the vehicle treated control group (C). The tumor model used in this assay is L1210 Leukemia (intraperitoneal) in B6D2F1 (BDF1) mice
Toxic doses and inconclusive results are not listed. Cut-off read from the data, not from the text of the source: active = T/C of 150% or more; inactive = T/C below 125%.
The reply should be one of these categories: True for active, False for inactive

Req: # outcome recorded in this test, key = C[N+](C)=C(Cl)Cl
Resp: False

Req: Also O=C(O)c1cc(Br)c(C(=O)O)cc1Br ?
Resp: False

Req: Also C[N+](C)(C)CC(O)CCl (stereo not drawn) ?
Resp: False

Req: Also CCCCCCc1cc2c(cc1CCCC)CCC2 ?
Resp: False

Req: Also FC(F)(F)C(Cl)Br (stereo not drawn) ?
Resp: False

Req: Also O=C(NN=c1c2ccccc2sc2ccccc12)c1cccc2ccccc12 ?
Resp: False

Req: Also Cc1ccc(C(C)(N=[N+]=[N-])c2ccccc2)cc1C (stereo not drawn) ?
Resp: False

Req: Also Nc1ncnc2c1ncn2C1OCC(OCc2ccccc2)C(OCc2ccccc2)C1OCc1ccccc1 (stereo not drawn) ?
Resp: False

Req: Also N=C(N)SCCON1C(=O)c2ccccc2C1=O ?
Resp: False

Req: Also C/C(=C\C(C)(C)c1ccccc1)c1ccccc1 (tested in a mixture with another compound) ?
Resp: False

Req: Also CC(=O)NC(C(O)CC(=O)C(=O)O)C(O)C(O)C(O)CO (stereo not drawn) (tested in a mixture with another compound) ?
Resp: False

Req: Also COc1cc2c(cc1OC)C(Cc1ccc(O)cc1)N(C)CC2 (stereo not drawn) ?
Resp: False

Req: Also NC(=O)c1nccc2ccccc12 ?
Resp: False

Req: Also ClCCN(CC#CCCCC#CCN(CCCl)CCCl)CCCl ?
Resp: True

Req: Also Nc1ncc(CNc2ccc(C(=O)O)cc2)c(N)n1 ?
Resp: False

Req: Also Cc1cc(C(=O)CC(C)C(=O)O)cc2c1sc1ccccc12 (stereo not drawn) ?
Resp: False

Req: Also NCC(O)c1ccc(OCc2ccccc2)cc1 (stereo not drawn) ?
Resp: False

Req: Also COC(=O)C1C(O)CCC2CN3CCc4c([nH]c5ccccc45)C3CC21 (stereo not drawn) ?
Resp: False
